Target: G1 APOL1 (Homo sapiens, UniProt O14791, I384M/S342G)
Construct: expressed in transfected cells
Sequence (O14791 28-398 S342G/I384M): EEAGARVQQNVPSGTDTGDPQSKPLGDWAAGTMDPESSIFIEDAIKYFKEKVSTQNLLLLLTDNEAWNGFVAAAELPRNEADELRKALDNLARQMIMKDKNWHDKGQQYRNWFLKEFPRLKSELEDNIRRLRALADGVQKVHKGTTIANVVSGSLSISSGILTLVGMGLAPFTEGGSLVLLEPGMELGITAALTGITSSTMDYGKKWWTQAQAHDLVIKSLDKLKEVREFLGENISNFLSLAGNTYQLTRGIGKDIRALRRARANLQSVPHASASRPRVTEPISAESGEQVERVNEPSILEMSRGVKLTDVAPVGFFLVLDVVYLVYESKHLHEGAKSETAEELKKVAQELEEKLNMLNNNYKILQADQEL
Experiment: Acute APOL1 Thallium Assay with inducible stable clones of HEK 293 cells
Type: cell-based
Details: Table 24, Compounds 287 to 465; read-out: Thallium Assay (IC50)
Below, each of the compounds is paired with its reported IC50 value.

CNC(=O)C(C)NCC1CC(c2c(-c3ccc(F)cc3)[nH]c3c(F)cc(F)cc23)C1 (mixture of isomers) | 0.25 to 1 µM
CO[C@H]1C[C@@H](NC(=O)O[C@H]2C[C@H](c3c(-c4ccc(F)cc4)[nH]c4c(F)cc(F)cc43)C2)C1 | > 1 µM

Recorded IC50 (compound O=C(NCc1cocn1)C1CC(Cc2c(-c3ccc(F)cc3)[nH]c3c(F)cc(F)cc23)C1 (stereo not drawn) ): > 1 µM

Record summary for CC(CO)(CO)NC(=O)NC[C@H]1C[C@H](c2c(-c3ccc(F)cc3)[nH]c3c(F)cc(F)cc32)C1 : reported IC50 = > 1 µM

Reported IC50 for O=C(Nc1c[nH][nH]c1=O)C1CC(Cc2c(-c3ccc(F)cc3)[nH]c3c(F)cc(F)cc23)C1 (stereo not drawn) was > 1 µM

Briefly, IC50 measured for NC(=O)CCNC1CC(c2c(-c3ccc(F)cc3)[nH]c3c(F)cc(F)cc23)C1 (stereo not drawn) : > 1 µM

Recorded result, O=C(NC[C@H]1C[C@H](c2c(-c3ccc(F)cc3)[nH]c3c(F)cc(F)cc32)C1)N1CCC[C@@H]1CO , IC50: > 1 µM

GET /value?item= O=C(CC1CC(c2c(-c3ccc(F)cc3)[nH]c3c(F)cc(F)cc23)C1)NCCO (stereo not drawn) &field=IC50 returns > 1 µM

CC[C@@H](CO)NC(=O)NC[C@H]1C[C@H](c2c(-c3ccc(F)cc3)[nH]c3c(F)cc(F)cc32)C1 has a reported IC50 of > 1 µM

The value of IC50 measured for the compound CN(C)C(=O)CNCC1CC(c2c(-c3ccc(F)cc3)[nH]c3c(F)cc(F)cc23)C1 (stereo not drawn) turned out to be 0.25 to 1 µM

// sample O=C(N[C@H]1CCOC1=O)C1CC(Cc2c(-c3ccc(F)cc3)[nH]c3c(F)cc(F)cc23)C1 (stereo partly drawn) , its IC50 was > 1 µM

Value of measured IC50 for the entry COC1(CNC(=O)C2CC(Cc3c(-c4ccc(F)cc4)[nH]c4c(F)cc(F)cc34)C2)CCOC1 (stereo not drawn) : > 1 µM

Value of IC50 reported for the compound CCNC(=O)N1CC(c2c(-c3ccc(F)cc3)[nH]c3c(F)cc(F)cc23)C1 is 0.25 to 1 µM

Quick note, IC50 for O=C(NC(CO)CO)N[C@H]1C[C@H](c2c(-c3ccc(F)cc3)[nH]c3c(F)cc(F)cc32)C1 landed at > 1 µM

Item: CC1(CNC(=O)C2CC(Cc3c(-c4ccc(F)cc4)[nH]c4c(F)cc(F)cc34)C2)CCOC1 (mixture of isomers) | IC50: > 1 µM

---

Target: G1 APOL1 (Homo sapiens, UniProt O14791, I384M/S342G)
Construct: expressed in transfected cells
Experiment: Acute APOL1 Thallium Assay with inducible stable clones of HEK 293 cells
Format: cell-based
Details: HEK 293 T-Rex cells expressing G1 APOL1; read-out: Thallium Assay (IC50)
The entries below are paired with their reported IC50.

Known results for compounds:
CC1(C(=O)NC2(CO)CC2)CC(c2c(-c3ccc(F)cc3)[nH]c3c(F)cc(F)cc23)C1 (mixture of isomers) | < 250 nM
CN(CCO)C(=O)[C@H]1C[C@H](c2c(-c3ccc(F)cc3)[nH]c3c(F)cc(F)cc32)C1 | < 250 nM
O=C(N[C@@H](CO)C(F)F)[C@H]1C[C@@H](c2c(-c3ccc(F)cc3)[nH]c3c(F)cc(F)cc32)C1 | 250 to 1000 nM
O=C(NCC(F)(F)F)[C@H]1C[C@H](c2c(-c3ccc(F)cc3)[nH]c3c(F)cc(F)cc32)C1 | 250 to 1000 nM
O=C(NCCO)[C@H]1C[C@@H](c2c(-c3ccc(F)cc3)[nH]c3c(F)cc(F)cc32)C1 | 250 to 1000 nM
O=C(NC[C@H]1CC[C@@H](CO)O1)[C@H]1C[C@H](c2c(-c3ccc(F)cc3)[nH]c3c(F)cc(F)cc32)C1 | > 1000 nM

We next turn to a different compound, shown below.
# IC50 (compound: Cc1ccn(CCNC(=O)[C@H]2C[C@H](c3c(-c4ccc(F)cc4)[nH]c4c(F)cc(F)cc43)C2)n1 ) is > 1000 nM

---

List of IC50 values.
Target: G1 APOL1 (Homo sapiens, UniProt O14791, I384M/S342G)
Construct: expressed in transfected cells
Test: Acute APOL1 Thallium Assay with inducible stable clones of HEK 293 cells
Assay type: cell-based
Conditions: HEK 293 T-Rex cells expressing G1 APOL1; read-out: Thallium Assay (IC50)

As a guide, the following entries are already answered.
O=C([C@H]1C[C@H](c2c(-c3ccc(F)cc3)[nH]c3c(F)cc(F)cc32)C1)N1C[C@@H]2[C@@H](CO)[C@@H]2C1 [Compound 99] | > 1000 nM
NC(=O)CNC(=O)[C@H]1C[C@@H](c2c(-c3ccc(F)cc3)[nH]c3c(F)cc(F)cc32)C1 [Compound 250] | > 1000 nM
NC(=O)C(CO)NC(=O)[C@H]1C[C@H](c2c(-c3ccc(F)cc3)[nH]c3c(F)cc(F)cc32)C1 (stereo partly shown) [Compound 32] | < 250 nM

The molecule CC(C)(CO)NC(=O)[C@H]1C[C@H](c2c(-c3ccc(F)cc3)[nH]c3c(F)cc(F)cc32)C1 [Compound 31] showed IC50 equal to < 250 nM

IC50 measured on CC1(O)CN(C(=O)[C@H]2C[C@H](c3c(-c4ccc(F)cc4)[nH]c4c(F)cc(F)cc43)C2)C1 [Compound 74] = 250 to 1000 nM

Entry NC(=O)[C@H]1CCCN1C(=O)[C@H]1C[C@H](c2c(-c3ccc(F)cc3)[nH]c3c(F)cc(F)cc32)C1 [Compound 153] , IC50 reported as 250 to 1000 nM

For O=C1N[C@H](CO)C[C@@H]1NC(=O)[C@H]1C[C@H](c2c(-c3ccc(F)cc3)[nH]c3c(F)cc(F)cc32)C1 [Compound 209] the molecule record lists IC50 as > 1000 nM

---

Measured pIC50, listed per entry.
Target: APOL1 G1 Protein (Homo sapiens, UniProt O14791, I384M/S342G)
Assay: Trypanosoma brucei brucei lysis assay using APOL1 recombinant protein (AlamarBlue viability)
Assay type: cell-based
Details: Trypanosoma brucei brucei lysis, recombinant APOL1, AlamarBlue; read-out: Trypanosoma Assay (IC50)
pIC50: −log10 of the molar value.

Check out these entries, answers already filled in.
CC(=O)NC1CCCN(C(=O)[C@H]2C[C@H](c3c(-c4ccc(F)cc4)[nH]c4c(F)cc(F)cc43)C2)C1 (stereo partly shown) [Compound 91] | < 6.00
O=C1CC[C@@H](NC(=O)[C@H]2C[C@H](c3c(-c4ccc(F)cc4)[nH]c4c(F)cc(F)cc43)C2)C1 [Compound 157] | < 6.00
CO[C@H]1CCN(C(=O)[C@H]2C[C@H](c3c(-c4ccc(F)cc4)[nH]c4c(F)cc(F)cc43)C2)C1 [Compound 95] | < 6.00

Consider now this further compound.
Recorded result, C[C@@H](O)[C@H](CO)NC(=O)[C@H]1C[C@H](c2c(-c3ccc(F)cc3)[nH]c3c(F)cc(F)cc32)C1 [Compound 155] , pIC50: 6.00 to 6.60

---

Target: APOL1 G1 Protein (Homo sapiens, UniProt O14791, I384M/S342G)
Test: Trypanosoma brucei brucei lysis assay using APOL1 recombinant protein (AlamarBlue viability)
Type: cell-based
Settings: Trypanosoma brucei brucei lysis, recombinant APOL1, AlamarBlue; read-out: Trypanosoma Assay (IC50)
Below: a set of entries, each annotated with reported IC50.

O=C(NC(CO)CO)[C@H]1C[C@H](c2c(-c3ccc(F)cc3)[nH]c3c(F)cc(F)cc32)C1 | < 250 nM
O=C([C@H]1C[C@H](c2c(-c3ccc(F)cc3)[nH]c3c(F)cc(F)cc32)C1)N1CCC2(COC2)C1 | > 1000 nM
CC(C#N)(CO)NC(=O)[C@H]1C[C@H](c2c(-c3ccc(F)cc3)[nH]c3c(F)cc(F)cc32)C1 (stereo partly shown) | < 250 nM
CC1(C)CN(C(=O)[C@H]2C[C@H](c3c(-c4ccc(F)cc4)[nH]c4c(F)cc(F)cc43)C2)CCN1C(=O)[C@H]1C[C@@](C)(O)C1 | > 1000 nM
CCN(CCO)C(=O)[C@H]1C[C@H](c2c(-c3ccc(F)cc3)[nH]c3c(F)cc(F)cc32)C1 | 250 to 1000 nM

For this compound ( O=C(NC1(CO)CC(F)(F)C1)[C@H]1C[C@H](c2c(-c3ccc(F)cc3)[nH]c3c(F)cc(F)cc32)C1 ), measured IC50 is < 250 nM

// field: IC50; key: O=C1NCCC1NC(=O)[C@H]1C[C@H](c2c(-c3ccc(F)cc3)[nH]c3c(F)cc(F)cc32)C1 (stereo partly shown) ; value = < 250 nM
